target: Anti-cotinine antibody (SEQ ID NO: 11 / SEQ ID NO: 12, rabbit variable region with human IgG1 Fc domain); assay: Binding of anti-cotinine antibody to ARM compounds by SPR, Biacore T200, 37° C. (Example 202); details: pH 7.4, rabbit variable region/human IgG1 Fc antibody captured on protein A
endpoint.label: pKd of Antibody for ARM Compound of Formula (I)

compound	readout.number
CC(C)N(C)[C@@H]1CC[C@H](N2CC[C@H](Nc3ncnc4ccc(C(F)(F)F)cc34)C2=O)[C@H](NC(=O)[C@H]2CC[C@H](NC(=O)CCCO[C@H]3CC[C@H](OCCNC(=O)[C@H]4CC(=O)N(C)[C@@H]4c4cccnc4)CC3)CC2)C1 [Example 1]	9.654
CC(C)N(C)[C@@H]1CC[C@H](N2CC[C@H](Nc3ncnc4ccc(C(F)(F)F)cc34)C2=O)[C@H](NC(=O)[C@H]2CC[C@H](NC(=O)CCCOCCCCOCCNC(=O)[C@H]3CC(=O)N(C)[C@@H]3c3cccnc3)CC2)C1 [Example 121]	9.332
CC(C)N(C)[C@@H]1CC[C@H](N2CC[C@H](Nc3ncnc4ccc(C(F)(F)F)cc34)C2=O)[C@H](NC(=O)COCCNC(=O)CCNC(=O)CCOCCOCCNC(=O)[C@H]2CC(=O)N(C)[C@@H]2c2cccnc2)C1 [Example 181]	9.1645
CC(C)N(C)[C@@H]1CC[C@H](N2CC[C@H](Nc3ncnc4ccc(C(F)(F)F)cc34)C2=O)[C@H](NC(=O)CCOCCNC(=O)[C@H]2CC[C@H](NC(=O)COCCNC(=O)[C@H]3CC(=O)N(C)[C@@H]3c3cccnc3)CC2)C1 [Example 108]	8.9855
CC(C)N(C)[C@@H]1CCC(N2CC[C@H](Nc3ncnc4ccc(C(F)(F)F)cc34)C2=O)[C@H](NC(=O)CCOCCOCCOCCOCCOCCOCCNC(=O)[C@H]2CC(=O)N(C)[C@@H]2c2cccnc2)C1 (some centres unmarked) [Example 41]	9.3615
CC(C)N(C)[C@@H]1CC[C@H](N2CC[C@H](Nc3ncnc4ccc(C(F)(F)F)cc34)C2=O)[C@H](NC(=O)COCCNC(=O)CCNC(=O)COCCOCCNC(=O)[C@H]2CC(=O)N(C)[C@@H]2c2cccnc2)C1 [Example 79]	9.126
CC(C)N(C)[C@@H]1CC[C@H](N2CC[C@H](Nc3ncnc4ccc(C(F)(F)F)cc34)C2=O)[C@H](NC(=O)CCOCCOCCNC(=O)CCOCCOCCNC(=O)[C@H]2CC(=O)N(C)[C@@H]2c2cccnc2)C1 [Example 76]	9.1155
CC(C)N(C)[C@@H]1CC[C@H](N2CC[C@H](Nc3ncnc4ccc(C(F)(F)F)cc34)C2=O)[C@H](NC(=O)[C@H]2CC[C@@H](CC(=O)CCCOC[C@H]3CC[C@H](COCCNC(=O)[C@H]4CC(=O)N(C)[C@@H]4c4cccnc4)CC3)CC2)C1 [Example 60]	9.4635
